- protocol: Rat tissue distribution after i.v. bolus
- Assay type: in vivo, Sprague-Dawley rats
- assay_conditions: rat, kidney, iv; male Sprague-Dawley rats, single 5 mg/kg i.v. bolus, t = 120 h, tissue homogenate, LC-MS/MS, n = 3/time point; read-out: Tissue/plasma AUC0–t ratio, kidney
Starred links: 1 amine or outer side, 2 acyl side, 3 side chain; linkers in the order of their positions; H or OH if unused. Positions of bridges follow the written chain, without caps; N, C: chain ends. Non-standard residues stand in square brackets, D forms with d. Residues, ends and D or L forms follow the SMILES beside them. *: point of attachment. Orn(4R-OH,5R-OCH2CH2NMe3+) = C[N+](C)(C)CCO[C@@H](N[*:3])[C@H](O)C[C@H](N[*:1])C(=O)[*:2]; pTerphenylCO(4''-OnC5H11) = CCCCCOc1ccc(-c2ccc(-c3ccc(C(=O)*)cc3)cc2)cc1; hTyr(3S-OH,4S-OH) = N[C@H](C(=O)O)[C@H](O)[C@@H](O)c1ccc(O)cc1; Pro(3S-OH,4S-Me) = C[C@H]1CN[C@H](C(=O)O)[C@H]1O; Hyp = O=C(O)[C@@H]1C[C@@H](O)CN1
experimental_endpoint: Kp
Reply with the value as a number alone.

Exercise: Value lookup for Kp; key = CCCCCOc1ccc(-c2ccc(-c3ccc(C(=O)N[C@H]4C[C@@H](O)[C@@H](OCC[N+](C)(C)C)NC(=O)[C@@H]5[C@@H](O)[C@@H](C)CN5C(=O)[C@H]([C@@H](C)O)NC(=O)[C@H]([C@H](O)[C@@H](O)c5ccc(O)cc5)NC(=O)[C@@H]5C[C@@H](O)CN5C(=O)[C@H]([C@@H](C)O)NC4=O)cc3)cc2)cc1 [CD101] ({pTerphenylCO(4''-OnC5H11)}-[Orn(4R-OH,5R-OCH2CH2NMe3+)]T[Hyp][hTyr(3S-OH,4S-OH)]T[Pro(3S-OH,4S-Me)]; lactam 1-C)
Solution: 4.62

Data credit: paper PMC5365648
